For UniProtKB P25774, measured IC50 is reported for the entries below.

[
  {
    "COMPOUND": "CCC(NC(=O)[C@@H]1C[C@@H](Oc2ccccc2)CN1C(C)=O)C(=O)c1nc2ccccc2o1 (some centres undefined)",
    "CMP": ">",
    "IC50, nM": 1000
  },
  {
    "COMPOUND": "CC[C@H](NC(=O)[C@@H]1C[C@@H](S(=O)(=O)c2ccccc2)CN1C(C)=O)C(=O)c1nc2ccccc2o1",
    "CMP": "=",
    "IC50, nM": 3.3
  },
  {
    "COMPOUND": "CCC(NC(=O)[C@@H]1C[C@@H]([S@](=O)c2ccccc2)CN1C(C)=O)C(=O)c1nc2ccccc2o1 (some centres undefined)",
    "CMP": "=",
    "IC50, nM": 83.7
  },
  {
    "COMPOUND": "CCC(NC(=O)[C@@H]1C[C@@H](S(=O)(=O)c2ccc(F)cc2)CN1C(C)=O)C(=O)c1nc2ccccc2o1 (some centres undefined)",
    "CMP": "=",
    "IC50, nM": 3.2
  }
]

###

TGT: Cathepsin S (Homo sapiens)
Sequence (P25774 whole entry): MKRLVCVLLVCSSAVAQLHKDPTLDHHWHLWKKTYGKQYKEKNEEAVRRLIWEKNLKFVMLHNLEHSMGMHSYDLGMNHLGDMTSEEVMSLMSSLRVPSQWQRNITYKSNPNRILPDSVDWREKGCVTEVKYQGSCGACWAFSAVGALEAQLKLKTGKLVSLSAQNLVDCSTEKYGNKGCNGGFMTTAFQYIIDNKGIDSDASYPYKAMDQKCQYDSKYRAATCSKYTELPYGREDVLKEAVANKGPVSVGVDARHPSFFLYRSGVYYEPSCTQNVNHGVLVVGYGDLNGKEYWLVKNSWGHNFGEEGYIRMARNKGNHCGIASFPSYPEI
Param label: returns criterion met when IC50 < 4 nM, returns criterion not met otherwise, including exact equality.

[
  {
    "COMPOUND": "CCC(NC(=O)[C@@H]1C[C@@H](S(=O)(=O)c2ccccc2)CN1C(=O)c1ccccc1)C(=O)c1nc2ccccc2o1 (stereo partly specified)",
    "CLASS LABEL": "criterion met"
  },
  {
    "COMPOUND": "O=C(CNC(=O)[C@@H]1C[C@@H](S(=O)(=O)c2ccccc2)CN1C(=O)C1CCCCC1)c1nc2ccccc2o1",
    "CLASS LABEL": "criterion not met"
  },
  {
    "COMPOUND": "CCC(NC(=O)[C@@H]1C[C@@H](S(=O)(=O)c2ccccc2)CN1C(=O)c1ccncc1)C(=O)c1nc2ccccc2o1 (stereo partly specified)",
    "CLASS LABEL": "criterion met"
  },
  {
    "COMPOUND": "CCC(NC(=O)[C@@H]1C[C@@H](S(=O)(=O)c2ccccc2)CN1c1ccccc1)C(=O)c1nc2ccccc2o1 (stereo partly specified)",
    "CLASS LABEL": "criterion not met"
  },
  {
    "COMPOUND": "CCC(NC(=O)[C@@H]1C[C@@H](Sc2ccccc2)CN1C(C)=O)C(=O)c1nc2ccccc2o1 (stereo partly specified)",
    "CLASS LABEL": "criterion not met"
  },
  {
    "COMPOUND": "CC(=O)N1C[C@H](S(=O)(=O)c2ccccc2)C[C@H]1C(=O)NC(C)C(=O)c1nc2ccccc2o1 (stereo partly specified)",
    "CLASS LABEL": "criterion not met"
  },
  {
    "COMPOUND": "CCC(NC(=O)[C@@H]1C[C@@H](S(=O)(=O)c2ccccc2)CN1C(C)=O)C(=O)c1nc2ccccc2o1 (stereo partly specified)",
    "CLASS LABEL": "criterion met"
  },
  {
    "COMPOUND": "CCC(=O)N1C[C@H](S(=O)(=O)c2ccccc2)C[C@H]1C(=O)NC(CC)C(=O)c1nc2ccccc2o1 (stereo partly specified)",
    "CLASS LABEL": "criterion met"
  },
  {
    "COMPOUND": "CCC(NC(=O)[C@@H]1C[C@@H](S(=O)(=O)c2ccccc2)CN1C(=O)C(F)(F)F)C(=O)c1nc2ccccc2o1 (stereo partly specified)",
    "CLASS LABEL": "criterion met"
  },
  {
    "COMPOUND": "CC(=O)N1C[C@H](S(=O)(=O)c2ccccc2)C[C@H]1C(=O)NC(C(=O)c1nc2ccccc2o1)C(C)C (stereo partly specified)",
    "CLASS LABEL": "criterion not met"
  },
  {
    "COMPOUND": "CCC(NC(=O)[C@@H]1C[C@@H](S(=O)(=O)CC)CN1C(C)=O)C(=O)c1nc2ccccc2o1 (stereo partly specified)",
    "CLASS LABEL": "criterion not met"
  },
  {
    "COMPOUND": "CC[C@@H](NC(=O)[C@@H]1C[C@@H](S(=O)(=O)c2ccccc2)CN1C(C)=O)C(=O)c1nc2ccccc2o1",
    "CLASS LABEL": "criterion not met"
  },
  {
    "COMPOUND": "CCC(NC(=O)[C@@H]1C[C@@H](S(=O)(=O)c2ccccc2)CN1C(=O)C(C)C)C(=O)c1nc2ccccc2o1 (stereo partly specified)",
    "CLASS LABEL": "criterion met"
  },
  {
    "COMPOUND": "CCC(NC(=O)[C@@H]1C[C@@H](S(=O)(=O)c2ccccc2)CN1C(=O)c1cccnc1)C(=O)c1nc2ccccc2o1 (stereo partly specified)",
    "CLASS LABEL": "criterion met"
  },
  {
    "COMPOUND": "CCC(NC(=O)[C@@H]1C[C@@H](S(=O)(=O)c2ccc(-n3cccn3)cc2)CN1C(C)=O)C(=O)c1nc2ccccc2o1 (stereo partly specified)",
    "CLASS LABEL": "criterion met"
  }
]

The measured values listed here are drawn from ChEMBL document CHEMBL2380281.
